Experiment: qHTS profiling for inhibitors of Plasmodium falciparum proliferation (AID 504749);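 also: 0% = DMSO vehicle and full inhibition = artemisinin control; nearly all actives have a fitted effect of over 60% in size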
Conditions: P. falciparum in erythrocytes, SYBR Green DNA, 72 h; at 28.7 µM (top of the series); parasite line A
Records with an inconclusive call do not appear.
assayReadout: activity, negative = inhibition (%)
Numbers only; they are read as %.

Exam item: Query: activity, negative = inhibition; subject: `[Hg+][c]1ccccc1`
Marked response: 13.8

Exam item: `C#CCN(C)[C@@H](C)Cc1ccccc1` , same question.
Marked response: -9.65

Exam item: Can you check CNC(C)[C@@H](O)c1ccccc1 (stereo partly drawn) next?
Marked response: -2.9

Exam item: Now try ClC1=C(Cl)C2(Cl)C3C4CC(C5OC45)C3C1(Cl)C2(Cl)Cl (stereo not drawn) .
Marked response: -12.8

Exam item: Now this one: C[C@]12CC[C@H](O)C[C@H]1CCC1C2CC[C@]2(C)[C@@H](c3ccc(=O)oc3)C[C@H]3O[C@]132 (stereo partly drawn)
Marked response: -25.7

Exam item: Now the compound COc1cc2c(cc1OC)[C@@]13CCN4CC5=CCOC6CC(=O)N2C1[C@H]6[C@@H]5C[C@@H]43 (stereo partly drawn)
Marked response: -1.63

Exam item: Also check Oc1ccc2c3c1O[C@H]1[C@@H](O)CC[C@@]4(O)C(C2)N(CC2CCC2)CCC314 (stereo partly drawn)
Marked response: 12

Exam item: Same thing, different compound: `COc1cc(N)c(Cl)cc1C(=O)N[C@@H]1CN2CCC1CC2`
Marked response: -0.396

Exam item: What do you have for CC([C@H](O)c1ccccc1)N(C)C (stereo partly drawn) ?
Marked response: 3.7

Exam item: Repeat with C[C@]12CC[C@H](OS(=O)(=O)O)CC1=CCC1C2CC[C@]2(C)C(=O)CC[C@@H]12 (stereo partly drawn)
Marked response: -6.88

Exam item: Also need `C[C@]12CC[C@H]3[C@@H](CCC4=CC(=O)CC[C@@]43C)[C@@H]1CC[C@@H]2O` , thanks.
Marked response: -11.8

Exam item: Similarly, CCCC[N+]1(C)C2CC(OC(=O)C(CO)c3ccccc3)CC1C1OC12 (stereo not drawn) ?
Marked response: -8.81

Exam item: Param item: `C[C@H](NC(C)(C)C)C(=O)c1cccc(Cl)c1`
Marked response: 3.13

###

Assay: KB-8-5-11 Cancer Cell Toxicity qHTS against the NCATS CANVASS Library (AID 1347364); also: nearly all actives have a fitted effect of over 75% in size
Conditions: KB-8-5-11 MDR cells viability, CellTiter-Glo, 72 h; series mostly up to 46.1 µM
Results filed as inconclusive are left out. Calls of active or inactive are those of the source. Calls come from the whole dose curve; as a rule, active = well fitted cell-killing curve with a large enough effect; inconclusive = small, poorly fitted or top-dose-only effect; inactive = flat fitted curve, though single readings scatter.
Answer with one of the outcomes active, inactive

Exam item: Test call, this molecule: `CC[C@H]1CN2CCc3c([nH]c4cccc(OC)c34)[C@@H]2C[C@@H]1/C(=C\OC)C(=O)OC`
Marked response: inactive

Exam item: Same again, this time with `C/C=C(\C)C(=O)O[C@@H]1[C@@H](O)[C@@H]2O[C@H]3[C@H](O[C@@H](CCCCC)CCCCCCC(=O)CCC(=O)OC[C@@H](O2)[C@H]1OC(=O)/C=C/c1ccccc1)O[C@H](C)[C@H](OC(C)=O)[C@@H]3O`
Marked response: active

Exam item: Okay, and `C/C=C/[C@@H]1[C@H]2C[C@@H](C)CC[C@@H]2C(C)=C[C@H]1C(=O)c1c(O)c(-c2ccc(O)cc2)c[nH]c1=O` ?
Marked response: active

Exam item: Similarly, `C=CC(C)(C)[C@@]12C[C@H]3C(=O)N/C(=C\c4cnc[nH]4)C(=O)N3[C@@H]1Nc1ccccc12` ?
Marked response: inactive

Exam item: What about `C=C[C@H]1CN2CCc3c([nH]c4cccc(OC)c34)[C@@H]2C[C@@H]1/C(=C\OC)C(=O)OC` ?
Marked response: inactive

Exam item: Input C/C=C1/CN2C3CC1C1=CCC(=O)N4c5ccccc5[C@@]3(C[C@@H]2C2=C[C@H]3C5CC6N(CC[C@@]67c6ccccc6N(C2=O)[C@@H]37)C/C5=C/C)[C@H]14 (some centres not stated)
Marked response: active

Exam item: Again, but for C[C@]12CC(O)C3[C@@H](CC[C@@H]4C[C@@H](O)CC[C@]34CO)[C@@]1(O)CC[C@@H]2C1=CC(=O)OC1 (some centres not stated)
Marked response: active

###

Experiment: qHTS Assay for Lipid Storage Modulators (AID 1519)
Conditions: Drosophila S3 cells, BODIPY lipid droplet/cell ratio, laser cytometry; measured here: lipid channel max response; cells loaded with oleic acid
Records with an inconclusive call do not appear.
assayReadout: max response (%)
# unit: % | format: bare number

Exam item: // lookup max response for `COc1nc(NC(C)C)nc(NC(C)C)n1`
Marked response: -2.96

Exam item: Next compound: CC1(C)C(O)CC(O)[C@]2(C)C1CC(O)[C@]1(C)C2CC[C@@]2(C)C(c3ccoc3)OC(=O)C3O[C@]312 (some centres undefined)
Marked response: 16.1

Exam item: Would you kindly repeat that for `O=c1ccc2cc(O[C@H]3O[C@@H](CO)[C@@H](O)[C@@H](O)[C@@H]3O)c(O)cc2o1` ?
Marked response: 0.833

Exam item: Also need `CCCCCCCCCc1ccc(O)cc1` , thanks.
Marked response: 11

Exam item: Now consider CCN1C[C@@]2(COC)C3[C@@H](OC)C4[C@@H]1[C@@]3(C1C[C@@]3(O)[C@H](OC(=O)c5ccccc5)C1[C@]4(OC(C)=O)[C@@H](O)[C@@H]3OC)[C@@H](OC)C[C@H]2O (some centres undefined) .
Marked response: -8.3

Exam item: Now the compound `N#C/C(=C\c1cccc(O)c1)C(=O)O`
Marked response: 7.48

Exam item: Would you mind doing `CC(C)Nc1nc(Cl)nc(NC(C)C)n1` as well?
Marked response: 10.8

Exam item: Follow-up item: `Nc1ncn[nH]1`
Marked response: 23.5

Exam item: Query CC(CCC(=O)O)C1CCC2C3C(=O)CC4CC(=O)CC[C@@]4(C)C3CC(=O)[C@]12C (some centres undefined) next
Marked response: 21.9

Exam item: Next entry: CC(C)[C@@]1(NC(=O)[C@@H]2C[C@@H]3c4cccc5[nH]cc(c45)C[C@H]3N(C)C2)O[C@@]2(O)C3CCCN3C(=O)[C@H](Cc3ccccc3)N2C1=O (some centres undefined)
Marked response: -14.4

Exam item: Another: `CCN[C@]1(c2cccs2)CCCCC1=O`
Marked response: -12.8

Exam item: Same again, this time with `CN1CCCC2(CCN(C(=O)Oc3ccccc3)CC2)C1`
Marked response: -1.11

Exam item: `COC(=O)COc1cc(Cl)c(Cl)cc1Cl` ?
Marked response: 15.5

Exam item: Let us now turn to `O=C(Oc1ccccc1)N1CCC2(CCCN(C(c3ccccc3)c3ccccc3)C2)CC1`
Marked response: 16.7

Exam item: Now the same for `O=C(NC(=O)c1ccccc1Cl)Nc1ccc(OC(F)(F)F)cc1`
Marked response: 9.8

Exam item: Okay, and `CNC(=O)Oc1cccc2c1OC(C)(C)C2` ?
Marked response: 6.59

Exam item: Moving on to the next compound: C[C@@]12CCC(O)C[C@H]1CCC1C2CC[C@]2(C)C(=O)CCC12 (some centres undefined)
Marked response: 9.46

Exam item: Item: `CC(C)NC(=O)N1CCCC2(CCN(C(=O)Oc3ccccc3)CC2)C1`
Marked response: 29.9

Exam item: Please answer likewise for O=C1CC(c2ccc(O)cc2)Oc2cc(O)cc(O)c21 (centres undefined)
Marked response: 4.14

Exam item: Also check `CS(=O)(=O)N1CCC2(CC1)CN(Cc1ccncc1)C2`
Marked response: 27.2

Exam item: Input `Cc1noc(C)c1C(=O)N1CCC[C@@]2(CCN(CC(C)C)C2)C1`
Marked response: 15.4

Exam item: Another compound to check: CC(=O)C1CCC2C3CCC4CC(O)CCC4(C)C3CC(O)C12C (centres undefined)
Marked response: 2.61

Exam item: Now give it for `Clc1ccc(CO[C@@H](Cn2ccnc2)c2ccc(Cl)cc2Cl)cc1` too.
Marked response: -19.5

Exam item: Please do the same for `CN1CCC2(CC1)CCN(C(=O)c1ccco1)CC2` as well.
Marked response: 24.5

Exam item: Next compound up: OCC1CCCN2CCCCC12 (centres undefined)
Marked response: 1.94

Exam item: Can you handle `Clc1ccc(CS[C@@H](Cn2ccnc2)c2ccc(Cl)cc2Cl)cc1` next?
Marked response: -18.3

Exam item: Request: `CN1CC[C@@]2(CCCN(C(=O)Oc3ccccc3)C2)C1`
Marked response: 22

Exam item: Ok, now `COc1ccc(/C=C/c2cc(O)cc(O)c2)cc1`
Marked response: 6.07

Exam item: `COc1cc(N)c(Cl)cc1C(=O)N[C@@H]1CN2CCC1CC2` , same question.
Marked response: 7.11

Exam item: Again, but for CC(=O)OC1CCC23C(=O)OC45CCC(C6=CC(=O)OC6)C4(C)CCC2C5CCC3(O)C1 (centres undefined)
Marked response: 2.69

Exam item: Further, for `NC(=O)c1ccc(N)nc1` ?
Marked response: 22.3

Exam item: Entry `CCC[C@@](C)(COC(N)=O)COC(=O)NC(C)C` please
Marked response: 7.74

Exam item: Moving on to `FC(F)(F)c1cccc(N2CCNCC2)c1`
Marked response: -3.82

Exam item: Next up: `CO[C@@H](C)[C@](O)(C(=O)OCC1=CCN2CC[C@@H](O)[C@H]12)C(C)C`
Marked response: -10.6

Exam item: Another compound to look at: C=C(C)C1CNC(C(=O)O)C1CC(=O)O (centres undefined)
Marked response: 13

Exam item: Follow-up item: O=C1C=C2C=CC3C[C@@]2(O1)C1CCCCN31 (some centres undefined)
Marked response: 10.8

Exam item: Next entry: `O=C(NCNC(=O)N[C@H]1C(=O)NC(=O)N1CO)N[C@H]1C(=O)NC(=O)N1CO`
Marked response: -8.35

Exam item: And the next one, `COc1ccc(C[C@H]2c3cc(OC)c(OC)cc3CCN2C)cc1OC` ?
Marked response: 12.8

Exam item: Now give it for CC1/C=C/C=C/CC/C=C/C=C/C=C/C=C/C(OC2OC(C)C(O)C(N)C2O)CC2O[C@](O)(CC(O)C(O)CCC(O)CC(O)CC(O)CC(=O)OC(C)C(C)C1O)CC(O)C2C(=O)O (some centres undefined) too.
Marked response: 32

Exam item: Another: COc1c2c(cc3c1OCO3)C13C=CC(OC)CC1N(C2)CC3O (centres undefined)
Marked response: 26.7

Exam item: Now the compound `CCNC[C@H](O)c1cccc(O)c1`
Marked response: -12.3

Exam item: Try this compound too: `C=CCN1CC[C@@]2(C)c3cc(O)ccc3CC1[C@@H]2C`
Marked response: 28.1

Exam item: Entry `CCOCN(C(=O)CCl)c1c(C)cccc1CC` please
Marked response: -5.22

Exam item: Next compound: `CN1Cc2c(ccc3c2OCO3)[C@@H]2[C@@H](O)Cc3cc4c(cc3[C@@H]21)OCO4`
Marked response: -1.15

Recorded values, source PubChem BioAssay (NCATS).
